The following are reported IC50 results, target or system UniProt:O95263.
Sequence (O95263 whole entry): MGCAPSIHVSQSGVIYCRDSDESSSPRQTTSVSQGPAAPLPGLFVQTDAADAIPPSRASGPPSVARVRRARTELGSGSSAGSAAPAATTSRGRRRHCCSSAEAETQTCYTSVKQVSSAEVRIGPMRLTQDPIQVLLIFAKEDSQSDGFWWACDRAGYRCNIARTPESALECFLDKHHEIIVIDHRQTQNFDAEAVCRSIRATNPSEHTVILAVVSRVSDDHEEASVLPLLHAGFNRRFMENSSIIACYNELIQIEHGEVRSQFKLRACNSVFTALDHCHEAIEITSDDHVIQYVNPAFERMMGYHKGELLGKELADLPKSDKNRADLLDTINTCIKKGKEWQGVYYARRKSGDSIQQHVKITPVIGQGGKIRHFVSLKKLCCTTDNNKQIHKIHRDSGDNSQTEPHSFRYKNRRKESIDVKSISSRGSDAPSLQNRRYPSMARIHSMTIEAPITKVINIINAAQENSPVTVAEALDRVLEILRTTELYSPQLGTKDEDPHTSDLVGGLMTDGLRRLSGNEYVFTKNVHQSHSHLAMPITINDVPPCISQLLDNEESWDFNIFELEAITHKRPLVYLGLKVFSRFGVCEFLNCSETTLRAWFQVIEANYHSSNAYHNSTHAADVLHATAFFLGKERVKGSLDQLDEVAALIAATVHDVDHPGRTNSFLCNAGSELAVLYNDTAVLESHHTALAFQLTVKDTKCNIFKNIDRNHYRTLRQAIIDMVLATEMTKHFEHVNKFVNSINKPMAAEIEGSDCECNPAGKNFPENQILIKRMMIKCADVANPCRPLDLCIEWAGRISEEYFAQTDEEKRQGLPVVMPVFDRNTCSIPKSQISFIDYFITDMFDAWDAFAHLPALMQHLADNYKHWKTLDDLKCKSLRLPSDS

compound	tested.target	IC50
CCCCCC[C@H]([C@H](C)O)n1cnc2c(N)ncnc21 [(+)-EHNA]	UniProt:O95263	> 16 µM

Checklist item: IC50 tested on UniProt:O95263, entry CN1C(=O)C(C(=O)Nc2nncs2)c2cc3occc3cc21 (configuration not stated) , value?
> 16 µM

---

- tested.target: 3',5'-cyclic-AMP phosphodiesterase 4C (Homo sapiens)
- Sequence (Q08493 whole entry): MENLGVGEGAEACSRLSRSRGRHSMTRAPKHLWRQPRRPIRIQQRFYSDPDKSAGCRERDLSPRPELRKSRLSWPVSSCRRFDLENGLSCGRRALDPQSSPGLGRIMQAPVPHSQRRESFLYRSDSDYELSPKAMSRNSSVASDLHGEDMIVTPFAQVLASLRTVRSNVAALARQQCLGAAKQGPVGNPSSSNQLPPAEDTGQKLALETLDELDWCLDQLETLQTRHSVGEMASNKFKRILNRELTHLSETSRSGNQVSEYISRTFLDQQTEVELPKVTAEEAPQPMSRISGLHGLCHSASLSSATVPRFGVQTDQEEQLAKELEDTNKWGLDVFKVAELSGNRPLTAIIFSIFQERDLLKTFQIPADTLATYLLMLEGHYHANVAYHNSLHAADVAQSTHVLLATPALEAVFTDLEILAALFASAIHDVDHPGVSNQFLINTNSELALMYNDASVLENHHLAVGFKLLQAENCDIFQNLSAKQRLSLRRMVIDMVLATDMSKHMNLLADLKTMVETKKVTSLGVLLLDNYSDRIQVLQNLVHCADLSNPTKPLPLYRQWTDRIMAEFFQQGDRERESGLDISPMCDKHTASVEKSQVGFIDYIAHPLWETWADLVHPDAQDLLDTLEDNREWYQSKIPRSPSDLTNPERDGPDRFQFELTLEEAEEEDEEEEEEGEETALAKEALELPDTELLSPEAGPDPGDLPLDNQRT
measured.parameter: IC50

What IC50 value was documented for this compound, CCCCCC[C@H]([C@H](C)O)n1cnc2c(N)ncnc21 [(+)-EHNA] ?
> 16 µM

---

- tested.target: cGMP-specific 3',5'-cyclic phosphodiesterase (Homo sapiens)
pIC50: −log10 of the molar value.
measured.parameter: pIC50

Checklist item: pIC50 tested on cGMP-specific 3',5'-cyclic phosphodiesterase (Homo sapiens), entry CCCCCC[C@H]([C@H](C)O)n1cnc2c(N)ncnc21 [(+)-EHNA] , value?
< 4.80

---

- protocol.details: Cmax in rat
- Format: ADME, organism-based
- condition.description: Sprague-Dawley, in vivo
measured.parameter: Cmax (ng/mL)
Just the number in ng/mL, nothing appended.

What Cmax value was documented for this molecule, CN1C(=O)C(C(=O)Nc2nncs2)c2cc3occc3cc21 (stereo unspecified) ?
8300

---

- protocol.details: Clearance in rat
- Type: ADME, organism-based
- condition.description: Sprague-Dawley, in vivo
measured.parameter: clearance
Be sure to follow the number with its unit.

What clearance value was documented for this compound, CN1C(=O)C(C(=O)Nc2nncs2)c2cc3occc3cc21 (stereo unspecified) ?
8.8 mL/min/kg

---

- tested.target: 3',5'-cyclic-AMP phosphodiesterase 4B (Homo sapiens, UniProt Q07343)
- Sequence (Q07343 whole entry): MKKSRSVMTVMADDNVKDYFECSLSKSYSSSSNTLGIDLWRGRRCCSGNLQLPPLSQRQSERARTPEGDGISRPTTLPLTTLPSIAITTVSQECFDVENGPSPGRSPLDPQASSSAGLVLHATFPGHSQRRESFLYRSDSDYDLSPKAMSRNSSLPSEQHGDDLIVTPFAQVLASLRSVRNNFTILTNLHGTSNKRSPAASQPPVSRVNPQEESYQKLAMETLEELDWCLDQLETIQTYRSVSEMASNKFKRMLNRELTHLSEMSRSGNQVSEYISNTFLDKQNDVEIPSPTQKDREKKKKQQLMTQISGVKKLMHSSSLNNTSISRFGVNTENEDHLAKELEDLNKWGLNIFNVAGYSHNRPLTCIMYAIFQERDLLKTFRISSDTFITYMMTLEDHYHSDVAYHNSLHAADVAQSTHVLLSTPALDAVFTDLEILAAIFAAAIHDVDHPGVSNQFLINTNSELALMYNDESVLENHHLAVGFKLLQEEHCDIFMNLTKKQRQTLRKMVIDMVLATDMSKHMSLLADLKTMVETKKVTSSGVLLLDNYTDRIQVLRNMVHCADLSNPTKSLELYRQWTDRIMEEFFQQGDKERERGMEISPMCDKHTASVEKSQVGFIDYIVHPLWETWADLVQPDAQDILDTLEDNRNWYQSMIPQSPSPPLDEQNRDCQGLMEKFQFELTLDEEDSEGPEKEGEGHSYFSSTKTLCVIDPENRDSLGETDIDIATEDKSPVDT
pIC50: −log10 of the molar value.
measured.parameter: pIC50

What pIC50 value was documented for this compound, CCCCCC[C@H]([C@H](C)O)n1cnc2c(N)ncnc21 [(+)-EHNA] ?
< 4.80

---

- protocol.details: Half life in rat
- Assay type: ADME, organism-based
- condition.description: Sprague-Dawley, in vivo
measured.parameter: half-life (h)
Just the number in h, nothing appended.

What half-life value was documented for this compound, CN1C(=O)C(C(=O)Nc2nncs2)c2cc3occc3cc21 (stereo unspecified) ?
1.6

---

- tested.target: cAMP and cAMP-inhibited cGMP 3',5'-cyclic phosphodiesterase 10A (Homo sapiens, UniProt Q9Y233)
- Sequence (Q9Y233 whole entry): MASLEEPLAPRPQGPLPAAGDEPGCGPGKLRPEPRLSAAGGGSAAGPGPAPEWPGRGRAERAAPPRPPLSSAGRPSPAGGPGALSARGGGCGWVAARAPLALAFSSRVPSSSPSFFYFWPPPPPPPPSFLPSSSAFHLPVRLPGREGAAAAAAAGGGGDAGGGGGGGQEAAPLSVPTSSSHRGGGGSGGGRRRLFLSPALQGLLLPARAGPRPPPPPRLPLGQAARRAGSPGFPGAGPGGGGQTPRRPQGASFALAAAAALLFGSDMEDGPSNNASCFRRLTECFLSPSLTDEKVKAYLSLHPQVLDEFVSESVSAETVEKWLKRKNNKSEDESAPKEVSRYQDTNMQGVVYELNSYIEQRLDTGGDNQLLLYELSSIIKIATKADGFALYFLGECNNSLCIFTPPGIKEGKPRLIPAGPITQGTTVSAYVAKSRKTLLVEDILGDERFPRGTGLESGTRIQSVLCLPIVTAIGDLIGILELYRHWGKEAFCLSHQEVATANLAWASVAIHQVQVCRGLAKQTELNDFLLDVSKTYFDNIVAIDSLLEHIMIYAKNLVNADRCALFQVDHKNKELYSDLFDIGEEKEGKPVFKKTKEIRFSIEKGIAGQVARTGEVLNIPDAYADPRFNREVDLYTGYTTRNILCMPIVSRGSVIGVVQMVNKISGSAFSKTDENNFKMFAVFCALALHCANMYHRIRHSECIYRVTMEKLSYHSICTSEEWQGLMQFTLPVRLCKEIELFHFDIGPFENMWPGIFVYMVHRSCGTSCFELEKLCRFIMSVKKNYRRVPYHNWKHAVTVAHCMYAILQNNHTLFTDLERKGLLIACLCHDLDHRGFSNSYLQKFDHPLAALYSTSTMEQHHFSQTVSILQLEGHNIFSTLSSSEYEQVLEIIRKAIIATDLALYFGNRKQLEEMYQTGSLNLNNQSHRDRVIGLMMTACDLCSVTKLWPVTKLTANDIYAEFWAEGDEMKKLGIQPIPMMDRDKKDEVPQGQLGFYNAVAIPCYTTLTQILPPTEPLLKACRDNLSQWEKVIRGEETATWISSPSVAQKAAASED
We begin with a simple list: items and their reported IC50.

compound	IC50
CCCCCC[C@H]([C@H](C)O)n1cnc2c(N)ncnc21 [(+)-EHNA]	> 16 µM

Here's the next entry for you.
What IC50 value was documented for this compound, CN1C(=O)C(C(=O)Nc2nncs2)c2cc3occc3cc21 (configuration not stated) ?
> 16 µM

---

- protocol.details: Apical Caco-2 cell membrane permeability
- Format: ADME, cell-based
- condition.description: human
measured.parameter: Papp (×10⁻⁶ cm/s)
Just the number in ×10⁻⁶ cm/s, nothing appended.

molecule	measured.parameter	numeric.result
CN1C(=O)C(C(=O)Nc2nncs2)c2cc3occc3cc21 (configuration not stated)	Papp	5

Here's the next entry for you.
What Papp value was documented for this molecule, CCCCCC[C@H]([C@H](C)O)n1cnc2c(N)ncnc21 [(+)-EHNA] ?
34

---

- tested.target: Dual 3',5'-cyclic-AMP and -GMP phosphodiesterase 11A (Homo sapiens, UniProt Q9HCR9)
- Sequence (Q9HCR9 whole entry): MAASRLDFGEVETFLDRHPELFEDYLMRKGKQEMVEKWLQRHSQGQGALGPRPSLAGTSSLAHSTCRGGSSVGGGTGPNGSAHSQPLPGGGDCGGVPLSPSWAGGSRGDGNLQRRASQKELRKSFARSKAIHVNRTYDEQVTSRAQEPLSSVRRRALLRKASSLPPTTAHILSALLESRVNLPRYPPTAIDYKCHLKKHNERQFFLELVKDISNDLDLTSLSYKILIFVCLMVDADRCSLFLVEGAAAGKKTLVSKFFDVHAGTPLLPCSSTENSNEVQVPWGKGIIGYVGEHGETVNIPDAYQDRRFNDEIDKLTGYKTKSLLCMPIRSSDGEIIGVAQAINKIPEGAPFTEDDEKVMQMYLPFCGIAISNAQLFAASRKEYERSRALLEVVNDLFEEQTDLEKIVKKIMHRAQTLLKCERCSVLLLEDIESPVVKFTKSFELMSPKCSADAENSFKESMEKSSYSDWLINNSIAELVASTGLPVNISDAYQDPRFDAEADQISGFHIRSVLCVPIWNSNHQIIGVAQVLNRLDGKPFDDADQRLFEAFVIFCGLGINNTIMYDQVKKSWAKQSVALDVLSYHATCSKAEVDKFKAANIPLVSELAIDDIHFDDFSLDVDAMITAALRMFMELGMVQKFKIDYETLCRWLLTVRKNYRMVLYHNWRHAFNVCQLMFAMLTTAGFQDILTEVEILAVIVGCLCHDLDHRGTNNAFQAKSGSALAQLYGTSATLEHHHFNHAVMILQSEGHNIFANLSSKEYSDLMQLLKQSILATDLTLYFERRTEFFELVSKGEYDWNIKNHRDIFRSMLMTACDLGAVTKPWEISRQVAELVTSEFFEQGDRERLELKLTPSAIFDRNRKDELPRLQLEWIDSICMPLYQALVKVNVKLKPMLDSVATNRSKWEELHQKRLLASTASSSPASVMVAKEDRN
measured.parameter: pIC50
To interpret pIC50, take it as minus log10 of a concentration measured in moles per litre.

What pIC50 value was documented for this compound, CN1C(=O)C(C(=O)Nc2nncs2)c2cc3occc3cc21 (stereo unspecified) ?
4.94
